The measurements presented in this section are drawn from the RNAGym collection of RNA variant scans (doi:10.7554/elife.80360).

B1: HDV Ribozyme (parent)
chain: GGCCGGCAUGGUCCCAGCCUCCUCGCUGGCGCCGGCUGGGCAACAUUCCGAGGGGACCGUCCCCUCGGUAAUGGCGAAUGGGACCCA

- Variants of: B1
- protocol: self-cleavage, relative activity (ratio to wild type); higher = more cleavage; co-transcriptional
Binary classification by self-cleavage, with 0.7 as an inclusive lower bound for T; all other cases are F.

1. C66G C75A; F
2. A78G C86A; T
3. C36U G68C; F
4. C44U G55A; T
5. U23A A45U; T
6. C13U G34C; F
7. C19A C64A; F
8. G28A G54U; F
9. G67A C85U; T
10. C3A G80U; F
11. C24U C63U; T
